system: CAKI-1; experiment: NCI tumour cell line growth inhibition, 48 h
The source made the active and inactive calls. Rule as the data show it: active = GI50 up to about 1.1 µM and inactive = higher.
Mark one answer only. Choices: active, inactive

Sample answers from the record:
*Q* Given `O=C(N/N=C/c1ccc([N+](=O)[O-])o1)c1ccc(C(=O)N/N=C/c2ccc([N+](=O)[O-])o2)cc1` , state the outcome it received in this test.
*A* inactive

*Q* Then `CSC(Cc1ccc2c(c1)Sc1ccccc1O2)=[N+]1CCOCC1` ?
*A* inactive

*Q* Moving on to the next molecule: C=C(C)C1CC2=C(C(=O)OC)C=C(O2)C(C(=C)C)[C@@H]2OC(=O)/C(=C\C1O)[C@H]2N(C)C (stereo not given in full)
*A* inactive

*Q* Same again, this time with `CSc1nc(C)c(CCOC(C)=O)c(Cl)n1`
*A* inactive

*Q* How about CCC1=CCC23C(=O)C=CC(=O)C2(C1)C(=O)c1cccc(OC)c1C3=O (stereo not given) ?
*A* inactive

New cases:
*Q* Field: outcome | Entry: CCc1cccc(C(C)C)c1NC(=O)C(=O)C1C(=O)Nc2ccccc2[S+]1[O-] (stereo not given)
*A* inactive

*Q* And for `CC(=O)OC(OC(C)=O)c1ccc2ccc3cccc4ccc1c2c34` ?
*A* inactive

*Q* Next up: `CC(C)(C)OC(=O)C1=C(C(=O)OC(C)(C)C)SC2(S1)C(C(=O)OC(C)(C)C)=C(C(=O)OC(C)(C)C)Sc1c2ssc1=O`
*A* inactive

*Q* Input `CC#Cc1cc2c(cc1O)CC[C@@H]1[C@@H]2CC[C@]2(C)[C@@H](O)CC[C@@H]12`
*A* active

*Q* Thanks! And `CO/N=C(\C(=O)O/C(=N/C1CCCCC1)NC1CCCCC1)c1csc(NC(c2ccccc2)(c2ccccc2)c2ccccc2)n1` ?
*A* inactive

*Q* Let us now turn to CC1=C/C(O)CC(=O)Cc2nc(co2)C(=O)N2CCC=C2C(=O)OC(C(C)C)C(C)/C=C\C(=O)NC/C=C\1 (stereo not given)
*A* inactive

====

system: DU-145; experiment: NCI tumour cell line growth inhibition, 48 h
Activity calls are given as the source filed them. No stated cut-off is given here; in the data, active = GI50 up to about 1.1 µM and inactive = higher.
Select the matching outcome among T = active, F = inactive

For orientation, consider the following solved cases.
*Q* Record request — test call for `CO/C=C(/C(=O)OC)c1ccccc1Oc1c(F)c(F)c(F)c(F)c1F`
*A* F

*Q* // same read-out, input: CC(=O)N1C(C(=O)NN2CCOCC2)CSC1c1ccccc1 (stereo not given)
*A* F

*Q* Can you check CSc1nc2c(c(=O)n1C)N=C(c1ccccc1)[C@H](C(CC(=O)c1ccccc1)c1ccccc1)C(c1ccccc1)N2 (stereo not given in full) next?
*A* F

*Q* Likewise for `CCc1ccc(NCc2cc(OC)c(OC)c(OC)c2)cc1` ?
*A* T

// switching to the query compound
*Q* Entry `CCOc1ccc2c(c1)/C(=C(\C(Cl)=C(Cl)Cl)[N+](=O)[O-])N2` : call = ?
*A* F

====

tested on: U-251; experiment: NCI tumour cell line growth inhibition, 48 h
The source made the active and inactive calls. Cut-off read from the data, not from the text of the source: active = GI50 up to about 1.1 µM and inactive = higher.
GI50 listing for selected compounds.

Below, 4 compounds whose answers are already recorded.
*Q* What GI50 value was documented for this compound, `CC(CC(=O)O)(CC(=O)O)C(=O)O` ?
*A* > 100 µM (inactive)

*Q* Check `CC1=C(c2cc(C(=O)Nc3cccc(C(F)(F)F)c3)nc(NC#N)n2)Sc2ccccc2N1` too.
*A* 86.5 µM (inactive)

*Q* Same again, this time with `O=Cc1c2n(c3ccccc13)N[C@@](Cc1ccc(O)cc1)(C(=O)O)C2`
*A* > 100 µM (inactive)

*Q* Also, CN(C)CC1(Cc2ccccc2)CC/C(=C\c2ccccc2)C1=O (stereo unspecified) please.
*A* 32.8 µM (inactive)

---
*Q* Any idea what its GI50 is? The compound is `O=c1[nH]c(=O)n2n1C1C=CC2CC1`
*A* > 100 µM (inactive)

*Q* And the next one, `CN1C/C(=C\c2ccc(C(=O)O)cc2)C(=O)/C(=C/c2ccc(C(=O)O)cc2)C1` ?
*A* > 100 µM (inactive)

*Q* Next record, please: `OCCCNc1[nH]cnc2nncc1-2`
*A* > 100 µM (inactive)

*Q* Query `O=C(/C=C1\Nc2ccccc2N\C1=C/C(=O)c1ccc(F)cc1)c1ccc(F)cc1` next
*A* 73.6 µM (inactive)

*Q* Would you kindly repeat that for `COc1ccc(-c2cc(O)c3cc(OC)c(OC)cc3n2)cc1OC` ?
*A* > 100 µM (inactive)
